Tested on: larvae of blowfly, Lucilia sericata
test name: whole plant or invertebrate
reported conditions: dose rate of 20 ppm; Lucilia sericata larvae on treated filter paper with bovine serum; assessed at 24 h
property measured: % Mortality 24 h
Give the value; after it, write the unit.

The cases that follow already have their % Mortality 24 h on record.
{"compound": "N#Cc1ccc(-c2ccc(C=C3OC(=O)C(c4ccc(F)cc4)=C3O)cc2)cc1 (mixture of isomers)", "assayed target": "larvae of blowfly, Lucilia sericata", "property measured": "% Mortality 24 h", "observed measurement": "0%"}
{"compound": "O=C1O/C(=C\\c2cccc(C(F)(F)F)c2)C(O)=C1c1ccccc1", "assayed target": "larvae of blowfly, Lucilia sericata", "property measured": "% Mortality 24 h", "observed measurement": "0%"}
{"compound": "N#Cc1ccc(C=C2OC(=O)C(c3ccc(C#N)cc3)=C2O)cc1 (mixture of isomers)", "assayed target": "larvae of blowfly, Lucilia sericata", "property measured": "% Mortality 24 h", "observed measurement": "40%"}

Lab note: measured % Mortality 24 h of COc1ccc(C=C2OC(=O)C(c3ccc(Cl)cc3)=C2O)cc1 was 0%

Lab note: measured % Mortality 24 h of O=C1O/C(=C\c2ccc(-c3cccc(CO)c3)cc2)C(O)=C1c1cccc(CO)c1 was 0%

Lab note: measured % Mortality 24 h of COc1cc(C=C2OC(=O)C(c3cc(Cl)cc(Cl)c3)=C2O)ccc1-c1cccc(C(F)(F)F)c1 was 0%

Lab note: measured % Mortality 24 h of O=C1OC(=Cc2ccc(-c3ccc(Cl)cc3)cc2)C(O)=C1c1cccc(Cl)c1 (mixture of isomers) was 0%

Lab note: measured % Mortality 24 h of O=C1OC(=Cc2ccccc2C(F)(F)F)C(O)=C1c1ccc(Cl)cc1 (mixture of isomers) was 10%

###

assayed target: E. coli Uridine-diphosphate-N-acetvimuramoyl: L-alanine lipase, MurC (Escherichia coli, UniProt P17952)
Sequence (P17952 whole entry): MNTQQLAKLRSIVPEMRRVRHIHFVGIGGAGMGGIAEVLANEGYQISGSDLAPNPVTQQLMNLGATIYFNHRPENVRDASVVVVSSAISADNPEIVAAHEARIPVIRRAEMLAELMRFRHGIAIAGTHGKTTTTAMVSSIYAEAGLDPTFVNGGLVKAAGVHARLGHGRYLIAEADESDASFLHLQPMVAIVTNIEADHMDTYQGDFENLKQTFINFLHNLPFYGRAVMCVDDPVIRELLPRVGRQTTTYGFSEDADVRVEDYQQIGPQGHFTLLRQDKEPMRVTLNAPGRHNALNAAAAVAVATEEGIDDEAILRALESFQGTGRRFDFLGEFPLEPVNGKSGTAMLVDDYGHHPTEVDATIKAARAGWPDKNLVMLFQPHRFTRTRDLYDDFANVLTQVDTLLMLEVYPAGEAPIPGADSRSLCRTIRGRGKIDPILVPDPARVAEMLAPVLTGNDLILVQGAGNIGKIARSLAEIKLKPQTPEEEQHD
test name: Inhibitory activity against MurC (E. coli)
Type: biochemical
reported conditions: (E) E. coli enzyme; read-out: MurC IC50 (converted)
Recorded measurements of IC50, one per entry
Only the number, expressed in µM, is required.

The cases that follow already have their IC50 on record.
{"compound": "Cc1ccc(/C=C2\\OC(=O)C(c3ccc(-c4ccccc4)cc3)=C2O)s1 [Example 104]", "IC50, µM": 13.9}
{"compound": "O=C1O/C(=C\\c2ccc(-c3ccccc3)cc2)C(O)=C1c1cc(Cl)cc(Cl)c1 [Example 67]", "IC50, µM": 14.7}
{"compound": "COc1ccc(C2=C(O)/C(=C/c3cccc4ccccc34)OC2=O)cc1 [Example 6]", "IC50, µM": 46.5}
{"compound": "Cc1ccccc1C1=C(O)/C(=C/c2ccc(-c3ccccc3C)cc2)OC1=O [Example 60]", "IC50, µM": 38}
{"compound": "CCOc1ccc(-c2ccc(C3=C(O)/C(=C/c4cccc(C(F)(F)F)c4)OC3=O)cc2)cc1 [Example 133]", "IC50, µM": 48.6}

Lab note: measured IC50 of O=Cc1cccc(C2=C(O)/C(=C/c3cccc4ccccc34)OC2=O)c1 [Example 76] was 14.6

Lab note: measured IC50 of COc1ccccc1-c1ccc(/C=C2\OC(=O)C(c3cc(Cl)cc(Cl)c3)=C2O)cc1OC [Example 19] was 12.8

###

Test system: larvae of blowfly, Lucilia sericata
test name: whole plant or invertebrate
reported conditions: dose rate of 20 ppm; Lucilia sericata larvae on treated filter paper with bovine serum; assessed at 48 h
Recorded measurements of % Mortality 48 h, one per entry
Only the number, expressed in %, is required.

The cases that follow already have their % Mortality 48 h on record.
{"compound": "O=C1OC(=Cc2ccc(F)cc2)C(O)=C1c1ccc(C(F)(F)F)cc1 (mixture of isomers) [R=H, R1=4-CF3—C6H4**, R2=4-F—C6H4]", "% Mortality 48 h (%)": 100}
{"compound": "N#Cc1ccc(-c2ccc(/C=C3\\OC(=O)C(c4ccc(Cl)cc4)=C3O)cc2)cc1 [R=H, R1=4-Cl—C6H4, R2=4-(4′-CN-biphenyl)]", "% Mortality 48 h (%)": 0}

Lab note: measured % Mortality 48 h of O=C1OC(=Cc2cccc(Cl)c2)C(O)=C1c1ccc(Cl)cc1 (mixture of isomers) [R=H, R1=4-Cl—C6H4**, R2=3-Cl—C6H4] was 0

###

Recorded measurements of MIC, one per entry
Tested on: Streptococci
test name: Minimum inhibitory concentration, microdilution broth method, streptococci
Assay type: cell-based
reported conditions: S. pneumo GC 1894; Mueller-Hinton broth with 5% horse blood, 18-22 hours at 35° C.
Only the number, expressed in µg/mL, is required.

The cases that follow already have their MIC on record.
{"given smiles": "CC(C)(C)c1ccc(-c2ccc(C3=C(O)/C(=C/c4ccc(Cl)c(C(F)(F)F)c4)OC3=O)cc2)cc1", "MIC (µg/mL)": 0.5}
{"given smiles": "Cc1ccc(/C=C2\\OC(=O)C(c3ccc(-c4ccccc4)cc3)=C2O)s1", "MIC (µg/mL)": 0.5}
{"given smiles": "O=C1O/C(=C\\c2ccc3ccccc3c2)C(O)=C1c1cccc2ccccc12", "MIC (µg/mL)": 4}
{"given smiles": "COc1ccccc1-c1ccc(/C=C2\\OC(=O)C(c3cc(Cl)cc(Cl)c3)=C2O)cc1C", "MIC (µg/mL)": 0.5}
{"given smiles": "O=C1O/C(=C\\c2ccccc2-c2cccc(Cl)c2)C(O)=C1c1cccc(Cl)c1", "MIC (µg/mL)": 1}

Lab note: measured MIC of O=C1O/C(=C\c2ccccc2C(F)(F)F)C(O)=C1c1ccc(-c2ccccc2)cc1 was 0.25

Lab note: measured MIC of CN(C)c1ccc(/C=C2\OC(=O)C(c3ccc(Cl)cc3)=C2O)c2ccccc12 was 2

Lab note: measured MIC of O=C1O/C(=C\c2cc(C(F)(F)F)ccc2F)C(O)=C1c1ccc(-c2ccccc2)cc1 was 4

###

assayed target: UniProtKB P17952
test name: Inhibitory activity against MurC (E. coli)
Type: biochemical
reported conditions: (E) E. coli enzyme; read-out: MurC IC50 (converted)
So basically, if IC50 comes in under 40 µM it's TRUE, and if it's 40 µM or more it's FALSE.

{"given smiles": "O=C1O/C(=C\\c2cccc3ccccc23)C(O)=C1c1cccc2ccccc12", "assigned category": "TRUE"}
{"given smiles": "CC(C)(C)c1ccc(-c2ccc(C3=C(O)/C(=C/c4cccc(C(F)(F)F)c4)OC3=O)cc2)cc1", "assigned category": "FALSE"}
{"given smiles": "O=C1O/C(=C\\c2cc(F)cc(C(F)(F)F)c2)C(O)=C1c1ccc(-c2ccccc2)c(F)c1", "assigned category": "TRUE"}
{"given smiles": "CC(C)(C)c1ccc(-c2ccc(C3=C(O)/C(=C/c4cc(C(F)(F)F)ccc4F)OC3=O)cc2)cc1", "assigned category": "FALSE"}
{"given smiles": "CCCc1ccc(-c2ccc(C3=C(O)/C(=C/c4cccc(C(F)(F)F)c4Cl)OC3=O)cc2)cc1", "assigned category": "FALSE"}

## Input Regarding O=C1O/C(=C\c2ccc(-c3ccccc3)cc2)C(O)=C1c1ccc(Cl)c(Cl)c1 , kindly confirm whether its IC50 is beneath 40 µM.
## Output TRUE

## Input Regarding O=C1O/C(=C\c2ccc(Cl)cc2)C(O)=C1c1ccc(-c2ccccc2)c(F)c1 , kindly confirm whether its IC50 is beneath 40 µM.
## Output TRUE

###

Test system: enterococci
test name: Minimum inhibitory concentration, microdilution broth method, enterococci
Type: cell-based
reported conditions: Enterococcus faecalis, E. faecalis GC 2242; Mueller-Hinton broth, 18-22 hours at 35° C.; read-out: MIC E. faecalis GC 2242
property measured: MIC
Give the value; after it, write the unit.

The cases that follow already have their MIC on record.
{"given smiles": "CCCc1ccc(-c2ccc(C3=C(O)/C(=C/c4cc(C(F)(F)F)ccc4Cl)OC3=O)cc2)cc1", "MIC": "2 µg/mL"}
{"given smiles": "O=C1O/C(=C\\c2ccc(-c3ccccc3)cc2)C(O)=C1c1csc2ccccc12", "MIC": "4 µg/mL"}
{"given smiles": "O=C1O/C(=C\\c2ccc(-c3ccccc3)cc2)C(O)=C1c1cccc(Cl)c1", "MIC": "0.5 µg/mL"}

Lab note: measured MIC of COc1ccccc1-c1ccc(/C=C2\OC(=O)C(c3cccc(Cl)c3)=C2O)cc1C was 8 µg/mL

Lab note: measured MIC of O=C1O/C(=C\c2cccc(C(F)(F)F)c2)C(O)=C1c1ccc(-c2ccccc2)cc1 was 8 µg/mL

Lab note: measured MIC of O=C1O/C(=C\c2ccc(-c3ccccc3)cc2)C(O)=C1c1cc(Cl)cc(Cl)c1 was 0.5 µg/mL

Lab note: measured MIC of O=C1O/C(=C\c2ccc(Cl)cc2)C(O)=C1c1ccc(-c2ccccc2)cc1 was 4 µg/mL

Lab note: measured MIC of O=C1O/C(=C\c2ccc(Cl)cc2)C(O)=C1c1ccc(-c2ccccc2)c(F)c1 was 4 µg/mL

The origin of these recorded values is patent US7495027B2.
